- EXPERIMENTAL_DETAILS: protein stability index of a GFP-peptide fusion (GPS, HEK-293T) (PSI 1-6); higher = more stable;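 note: 24-mer peptide tiles fused after GFP, lentivirally expressed, FACS-sorted into six equal bins by GFP/DsRed ratio, decoded by Illumina sequencing, PSI is the read-weighted mean bin number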
- ASSAY_CONDITIONS: treatment: MLN4924 1 uM, 8 h; c terminus: a fixed tail appended
Rule: class 1 for protein stability index not less than 4, class 0 for anything less.

Below, 6 sequences whose answers are already recorded.
>  <RESIDUE_STRING>
QTEPQDRSPAPMSCDKSTQTPSPP [BCL2L11]

>  <ANSWER_LABEL>
class 1

$$$$
>  <RESIDUE_STRING>
PHIEEQQKKIESYLHNHFIGEGMT [TENT5D]

>  <ANSWER_LABEL>
class 0

$$$$
>  <RESIDUE_STRING>
LSLCCWGWVSGQLRYSVVEESEPG [PCDHGC5]

>  <ANSWER_LABEL>
class 0

$$$$
>  <RESIDUE_STRING>
VGGQDTGATWRTSGLLEELNAEAG [C18orf25]

>  <ANSWER_LABEL>
class 1

$$$$
>  <RESIDUE_STRING>
STVGSAISRKLGDMRNSATFKSFE [TPD52L2]

>  <ANSWER_LABEL>
class 0

$$$$
>  <RESIDUE_STRING>
AFVLSSNSLKHCTELELFKATCRW [KLHL13]

>  <ANSWER_LABEL>
class 0

$$$$

Query :: # bool: protein stability index of SWVVRVQAAKLLGSMEQVSSHFLE [INTS4] >= 4
Result :: class 0

Query :: # bool: protein stability index of THPVTNTTEKQRLVKKLQDSVLER [GOLPH3L] >= 4
Result :: class 1

Query :: # bool: protein stability index of GVVVEDGVCIRRCTVLRDARIRSH [GMPPB] >= 4
Result :: class 0

Query :: # bool: protein stability index of TLSTIEFQREALENSHTNTEVLRN [CHMP4C] >= 4
Result :: class 1

Query :: # bool: protein stability index of GQFVSLDGAGKTPTLGGGFHVNLG [BRF1] >= 4
Result :: class 0

Query :: # bool: protein stability index of EAAGESLEEEIRRKQILLRGKLKK [ZC2HC1C] >= 4
Result :: class 1

Query :: # bool: protein stability index of PLGTQVAVNAHQWLDNPERWNKVK [SEPHS2] >= 4
Result :: class 0

Query :: # bool: protein stability index of AAWLTLWVFGTSFLPFLLCAVLLS [FADS1] >= 4
Result :: class 0

----------
- EXPERIMENTAL_DETAILS: protein stability index of a GFP-peptide fusion (GPS, HEK-293T) (PSI 1-6); higher = more stable
- ASSAY_CONDITIONS: treatment: DMSO; c terminus: a fixed tail appended
Consider the following sequences and their measured protein stability index readings.
Answer field: number only, no words.

Use the examples below as a reference point.
>  <RESIDUE_STRING>
GAYQPTVVSSEGRQSRRQSVSRFF [FBF1]

>  <REPORTED>
4.01

$$$$
>  <RESIDUE_STRING>
RKKDKTWMHTPEALSKHFIPYNAK [GULP1]

>  <REPORTED>
2.82

$$$$
>  <RESIDUE_STRING>
KCASDIFQASNPYLPTRGGTTMAS [TRIM55]

>  <REPORTED>
2.89

$$$$

Query :: Write down protein stability index measured for item KKCVKKFVEYCDVNNDKSISVQEL [SMOC2]
Result :: 3.57

Query :: Write down protein stability index measured for item LPTITSELSGAPRCHTVPCAGSTA [PXN]
Result :: 3.86

Query :: Write down protein stability index measured for item RGNHESRQITQVYGFYDECLRKYG [PPP2CA]
Result :: 2.75

Query :: Write down protein stability index measured for item RKHIIEGLKASLERLQLEYVDVVF [KCNAB2]
Result :: 2.94
